- ASSAY_OVERVIEW: Critical concentration (Mc) for precipitation of the enzymatic product
- Assay type: physicochemical
- PARTICULARS: product of hydrolysis by excess alkaline phosphatase, 0.1M TRIS pH 10.3
The threshold is inclusive: Mc (critical concentration for precipitation) of exactly 1 mM counts as MET; values below receive NOT MET.

Some solved entries appear below for comparison.
| MOLECULAR_STRING | CATEGORY_LABEL |
| --- | --- |
| O=c1[nH]c(-c2ccccc2OP(=O)(O)O)nc2ccc([N+](=O)[O-])cc12 | MET |
| COc1ccc(-c2nc3ccccc3c(=O)[nH]2)c(OP(=O)(O)O)c1 | MET |
| O=c1[nH]c(-c2ccccc2OP(=O)(O)O)nc2ccccc12 | MET |
| O=c1[nH]c(-c2cc(Cl)ccc2OP(=O)(O)O)nc2ccc(Cl)cc12 | NOT MET |
| COc1ccc(OP(=O)(O)O)c(-c2nc3ccc(Cl)cc3c(=O)[nH]2)c1 | MET |
| COc1ccc(OP(=O)(O)O)c(-c2nc3ccccc3c(=O)[nH]2)c1 | NOT MET |
| COc1cc(OC)c(OP(=O)(O)O)c(-c2nc3ccccc3c(=O)[nH]2)c1 | NOT MET |

From here, focus on the item given below.
**Query** Please indicate if the recorded Mc (critical concentration for precipitation) for O=c1[nH]c(-c2cc(Cl)ccc2OP(=O)(O)O)nc2ccccc12 meets or exceeds 1 mM.
**Result** NOT MET

Origin of the recorded values: patent US5443986A
